For each of the binders below, state its co-sedimentation pellet (% of WT).
target.or.system: filamentous actin (F-actin) from rabbit skeletal muscle (rabbit, UniProt P68135 1-377)
measurement.protocol: co-sedimentation

Q: Give the reported value of co-sedimentation pellet (% of WT) for this record: talin 2300–2541 K2443D/V2444D/K2445D (domain or fragment, mouse, UniProt P26039 2300-2541, looked up) DPTVIAENELLGAAAAIEAAAKKLEQLKPRAKPKEADESLNFEEQILEAAKSIAAATSALVKAASAAQRELVAQGKVGAIPANALDDGQWSQGLISAARMVAAATNNLCEAANAAVQGHASQEKLISSAKQVAASTAQLLVACDDDADQDSEAMKRLQAAGNAVKRASDNLVKAAQKAAAFEDQENETVVVKEKMVGGIAQIIAAQEEMLRKERELEEARKKLAQIRQQQYKFLPSELRDEH
A: 27 % of WT

Q: Give the reported value of co-sedimentation pellet (% of WT) for this record: talin 2334–2541 (upstream helix deleted) (domain or fragment, mouse, UniProt P26039 2334-2541, looked up) EADESLNFEEQILEAAKSIAAATSALVKAASAAQRELVAQGKVGAIPANALDDGQWSQGLISAARMVAAATNNLCEAANAAVQGHASQEKLISSAKQVAASTAQLLVACKVKADQDSEAMKRLQAAGNAVKRASDNLVKAAQKAAAFEDQENETVVVKEKMVGGIAQIIAAQEEMLRKERELEEARKKLAQIRQQQYKFLPSELRDEH
A: 262 % of WT

Q: Give the reported value of co-sedimentation pellet (% of WT) for this record: talin 2300–2541 L2323A (domain or fragment, mouse, UniProt P26039 2300-2541, looked up) DPTVIAENELLGAAAAIEAAAKKAEQLKPRAKPKEADESLNFEEQILEAAKSIAAATSALVKAASAAQRELVAQGKVGAIPANALDDGQWSQGLISAARMVAAATNNLCEAANAAVQGHASQEKLISSAKQVAASTAQLLVACKVKADQDSEAMKRLQAAGNAVKRASDNLVKAAQKAAAFEDQENETVVVKEKMVGGIAQIIAAQEEMLRKERELEEARKKLAQIRQQQYKFLPSELRDEH
A: 127 % of WT

Q: Give the reported value of co-sedimentation pellet (% of WT) for this record: talin 2300–2541 D2447N (domain or fragment, mouse, UniProt P26039 2300-2541, looked up) DPTVIAENELLGAAAAIEAAAKKLEQLKPRAKPKEADESLNFEEQILEAAKSIAAATSALVKAASAAQRELVAQGKVGAIPANALDDGQWSQGLISAARMVAAATNNLCEAANAAVQGHASQEKLISSAKQVAASTAQLLVACKVKANQDSEAMKRLQAAGNAVKRASDNLVKAAQKAAAFEDQENETVVVKEKMVGGIAQIIAAQEEMLRKERELEEARKKLAQIRQQQYKFLPSELRDEH
A: 144 % of WT

Q: Give the reported value of co-sedimentation pellet (% of WT) for this record: talin 2300–2541 R2513A (domain or fragment, mouse, UniProt P26039 2300-2541, looked up) DPTVIAENELLGAAAAIEAAAKKLEQLKPRAKPKEADESLNFEEQILEAAKSIAAATSALVKAASAAQRELVAQGKVGAIPANALDDGQWSQGLISAARMVAAATNNLCEAANAAVQGHASQEKLISSAKQVAASTAQLLVACKVKADQDSEAMKRLQAAGNAVKRASDNLVKAAQKAAAFEDQENETVVVKEKMVGGIAQIIAAQEEMLRKEAELEEARKKLAQIRQQQYKFLPSELRDEH
A: 66 % of WT
